Recorded IC50 by entry
- System: P. falciparum (NF54)
- METHOD_SUMMARY: Activity against Plasmodium falciparum erythrocytic stages (3H-hypoxanthine incorporation)
- Format: cell-based
- RUN_CONDITIONS: Plasmodium falciparum, NF54, NF54; mean of at least two independent replicates ± absolute deviation; read-out: P. falciparum IC50
REPORTED_PROPERTY: IC50 (µM)

COMPOUND: COc1cc(/C=C/C(=O)NCCCCNC(=O)/C=C/c2ccc(O)c(OC)c2)ccc1O
ASSAYED_TARGET: P. falciparum (NF54)
RESULT_UNIT: µM
RECORDED_RESULT: 30.6
--
COMPOUND: COc1cc([C@H]2O[C@@H](c3cc(OC)c(O)c(OC)c3)[C@@H](C)[C@@H]2C)cc(OC)c1O
ASSAYED_TARGET: P. falciparum (NF54)
RESULT_UNIT: µM
RECORDED_RESULT: 17
--
COMPOUND: CCOC(CNC(=O)/C=C/c1ccc(O)c(OC)c1)c1ccc(O)cc1 (stereo not shown)
ASSAYED_TARGET: P. falciparum (NF54)
RESULT_UNIT: µM
RECORDED_RESULT: 30.4
